Kindly supply the reported Mycelial growth values for the records listed here.
system: Alternaria alternata; test: Antifungal activity against Alternaria alternata was measured as mycelial growth at 0.5 mg/mL concentration; format: functional
The figure you give is taken to be in cm; do not add the unit.

Exercise: Quick check: Mycelial growth of Cc1nn(-c2ccc([N+](=O)[O-])cc2[N+](=O)[O-])cc1C(=O)OCc1ccccc1 ?
Key: 4.2

Exercise: Same question for CCOC(=O)c1cn(-c2ccc([N+](=O)[O-])cc2[N+](=O)[O-])nc1C please.
Key: 4.8

Exercise: Same question for CCOC(=O)c1cn(-c2ccc([N+](=O)[O-])cc2[N+](=O)[O-])nc1CCl please.
Key: 4.8

Exercise: Same question for CCOC(=O)c1cn(-c2ccc([N+](=O)[O-])cc2[N+](=O)[O-])nc1-c1ccc(Cl)cc1 please.
Key: 4.2

Exercise: Same question for CCOC(=O)c1cn(-c2ccc([N+](=O)[O-])cc2[N+](=O)[O-])nc1-c1ccccc1 please.
Key: 3.8

----------
system: Staphylococcus aureus; assay: Antibacterial activity against Staphylococcus aureus was determined at 0.1 mg/mL concentration; format: functional
Each entry gets false if its inhibition at 100 µg/mL stays under 50%, and true if its inhibition at 100 µg/mL is 50% or above.

Exercise: API: above_or_equal(metric=inhibition at 100 µg/mL, cutoff=50%) for item CCOC(=O)c1cn(-c2ccc([N+](=O)[O-])cc2[N+](=O)[O-])nc1-c1ccccc1
Key: false

Exercise: Same question for CCOC(=O)c1nn(-c2ccc([N+](=O)[O-])cc2[N+](=O)[O-])cc1C=O please.
Key: true

Exercise: Same question for CCOC(=O)c1cn(-c2ccc([N+](=O)[O-])cc2[N+](=O)[O-])nc1CCl please.
Key: true

Exercise: Same question for Cc1nn(-c2ccc([N+](=O)[O-])cc2[N+](=O)[O-])cc1C(=O)OC(C)(C)C please.
Key: true

Exercise: Same question for CCOC(=O)c1cn(-c2ccc([N+](=O)[O-])cc2[N+](=O)[O-])nc1C please.
Key: true

Exercise: Same question for CCOC(=O)c1cn(-c2ccc([N+](=O)[O-])cc2[N+](=O)[O-])nc1-c1ccccc1F please.
Key: false

Exercise: Same question for CCOC(=O)c1cn(-c2ccc([N+](=O)[O-])cc2[N+](=O)[O-])nc1-c1ccc(Cl)cc1 please.
Key: false

Exercise: Same question for Cc1nn(-c2ccc([N+](=O)[O-])cc2[N+](=O)[O-])cc1C(=O)OCc1ccccc1 please.
Key: false

----------
test system: Curvularia lunata; assay: Antifungal activity against Curvularia lunata was measured as mycelial growth at 0.1 mg/mL concentration; type: functional
Kindly supply the reported Mycelial growth values for the records listed here.
The figure you give is taken to be in cm; do not add the unit.

Exercise: Quick check: Mycelial growth of CCOC(=O)c1cn(-c2ccc([N+](=O)[O-])cc2[N+](=O)[O-])nc1C ?
Key: 6.5

Exercise: Same question for Cc1nn(-c2ccc([N+](=O)[O-])cc2[N+](=O)[O-])cc1C(=O)OCc1ccccc1 please.
Key: 6.4

Exercise: Same question for CCOC(=O)c1cn(-c2ccc([N+](=O)[O-])cc2[N+](=O)[O-])nc1-c1ccccc1 please.
Key: 5.6

Exercise: Same question for Cc1nn(-c2ccc([N+](=O)[O-])cc2[N+](=O)[O-])cc1C(=O)OC(C)(C)C please.
Key: 6.7

Exercise: Same question for CCOC(=O)c1cn(-c2ccc([N+](=O)[O-])cc2[N+](=O)[O-])nc1-c1ccccc1F please.
Key: 5

Exercise: Same question for CCOC(=O)c1cn(-c2ccc([N+](=O)[O-])cc2[N+](=O)[O-])nc1CCl please.
Key: 6

Exercise: Same question for CCOC(=O)c1cn(-c2ccc([N+](=O)[O-])cc2[N+](=O)[O-])nc1-c1ccc(Cl)cc1 please.
Key: 5.8

Exercise: Same question for CCOC(=O)c1nn(-c2ccc([N+](=O)[O-])cc2[N+](=O)[O-])cc1C=O please.
Key: 5.6

The reported numbers originate from ChEMBL document CHEMBL1137069.
